Reported values of GI50 for individual entries
Test system: M14
Test: NCI tumour cell line growth inhibition, 48 h
Active and inactive are the calls of the source. Cut-off read from the data, not from the text of the source: active = GI50 up to about 1.1 µM and inactive = higher.

> print(dat)
                                   molecule  study.system  reported.measurement
1  CC(=O)OCC1(C)C(O)CCC2(C)C1CCC1CC3CC12CCC3(O)CO (centres undefined)           M14   > 100 µM (inactive)
2   CNS(=O)(=O)NN(C)S(=O)(=O)c1ccc2ccccc2c1           M14   > 100 µM (inactive)
3  COC(=O)N/N=C(\C)C(CN1CCOCC1)C(c1ccccc1)c1cc2ccccc2oc1=O (centres undefined)           M14   > 100 µM (inactive)
4  COc1ccc2c(O)c3[n+](cc2c1OC)CCc1cc2c(cc1-3)OCO2           M14   > 100 µM (inactive)
5  Cc1cc2c(cc1-c1cc3c(cc1C)C(C(C)C)=C(O)C(=O)/C3=C\Nc1nc(-c3ccccc3)cs1)/C(=C/Nc1nc(-c3ccccc3)cs1)C(=O)C(O)=C2C(C)C           M14    12.9 µM (inactive)

--- query ---
Data request: Record request: GI50 value, item "N#Cc1cccc(NC(=O)c2ccc(C(=O)O)c(C(=O)c3ccc(C(=O)O)c(C(=O)Nc4cccc(C#N)c4)c3)c2)c1"
Data returned: > 100 µM (inactive)

###

Tested on: SNB-75
Test: NCI tumour cell line growth inhibition, 48 h
Active and inactive are the calls of the source. Cut-off read from the data, not from the text of the source: active = GI50 up to about 1.1 µM and inactive = higher.
Measured Metric: GI50

> print(dat)
                                   compound  reported.measurement
1  COc1cc(-c2cc(=O)c3c(OC)c(OC)c(OC)c(OC)c3o2)c(OC)c(OC)c1OC    16.4 µM (inactive)
2  O=S(=O)(O)c1cc(/N=N/c2cc(S(=O)(=O)O)c3ccccc3c2O)ccc1/C=C/c1ccc(/N=N/c2cc(S(=O)(=O)O)c3ccccc3c2O)cc1S(=O)(=O)O   > 458 µM (inactive)
3  NC(=O)C(NC=O)c1ccccc1 (centres undefined)   > 100 µM (inactive)

Data request: Record request: GI50 value, item COC(=O)C(=O)C(C(=O)C(=O)Nc1ccc(OC)cc1[N+](=O)[O-])c1nc2ccc([N+](=O)[O-])cc2nc1O (centres undefined)
Data returned: 26.5 µM (inactive)

###

System: SF-295
Assay: NCI tumour cell line growth inhibition, 48 h
Active and inactive are the calls of the source. No stated cut-off is given here; in the data, active = GI50 up to about 1.1 µM and inactive = higher.
Measured Metric: GI50

> print(dat)
                                   compound  study.system  reported.measurement
1  COc1ccc(/C=C2\CCC/C(=C\c3ccc(O)c(CN4CCCCC4)c3)C2=O)cc1        SF-295    6.95 µM (inactive)

Data request: Provide the documented GI50 with SF-295 as the system for CC(C)(C)OCC1NC(=O)[C@@H]2Cc3c([nH]c4ccccc34)C(C3CCCCC3)N2C1=O (stereo partly specified)
Data returned: 18.2 µM (inactive)

Data request: Provide the documented GI50 with SF-295 as the system for OC(C1=C/C(=C\c2ccncc2)c2ccccc21)c1ccncc1 (stereo unspecified)
Data returned: 8.65 µM (inactive)

Data request: Provide the documented GI50 with SF-295 as the system for O[C@H]1[C@H]2[C@H](O)CCCN2C[C@H]1O [TRIDOLGOSIR]
Data returned: > 100 µM (inactive)

Data request: Provide the documented GI50 with SF-295 as the system for CCOC(=O)C1C(=O)CC(C)(O)C(C(=O)OCC)C1c1ccc(N(C)C)cc1 (stereo unspecified)
Data returned: > 100 µM (inactive)

Data request: Provide the documented GI50 with SF-295 as the system for Cc1[nH]c2ccccc2c1C1Cc2ccccc2N1C(=O)/C=C/C=C/c1ccccc1 (stereo unspecified)
Data returned: > 100 µM (inactive)
